FYI, the data here is from ChEMBL document CHEMBL1201862.

- Test system: UACC-62
- test name: NCI tumour cell line growth inhibition, 48 h
Active and inactive are the calls of the source. Cut-off read from the data, not from the text of the source: active = GI50 up to about 1.1 µM and inactive = higher.
In this exercise, the only acceptable responses are T for active, F for inactive

The following compounds have reported results that may help.
{"compound": "CC(=O)Nc1ccc(/C=N\\N2C(=O)c3ccccc3C2=O)cc1", "answer label": "F"}
{"compound": "N#Cc1c(NC(=S)NC(=O)c2ccccc2)nc2c(c1-c1ccccc1)CCCC2", "answer label": "F"}
{"compound": "Cc1ccc(C(=O)NN=C(/N=N/c2cccc(C)c2)c2ccc(N(C)C)cc2)cc1", "answer label": "F"}

// query Lab log entry: COC(=O)/C=C1\C(CO[Si](C)(C)C(C)(C)C)OC(n2cc(C)c(=O)n(C)c2=O)C1O[Si](C)(C)C(C)(C)C (configuration not stated) — outcome as called in the assay?
// result F

// query Lab log entry: C=CCOCCC(CC=C)C(=O)CC(=O)OC (configuration not stated) — outcome as called in the assay?
// result F
